# Tested on: MDA-MB-231
# Method Notes: shRNA barcode abundance ratio t_end/t_zero (depletion over 4 weeks of proliferation) (log2 ratio); higher = less depletion (weaker anti-proliferative effect of the shRNA)
# Applied Conditions: time after t zero 28 days
Parameter: shRNA barcode abundance ratio t end/t zero (log2)

>>> print(df.to_string())
                              entry_sequence  observed
 0  GAGGATTATGGCTAACAAGAA (targeted gene: MCL1)      0.27
 1  GGAGAAATTATTGATCCAAAT (targeted gene: NAIP)     0.608
 2  TCAGGAAATGTTATCAGCAAA (targeted gene: BNIP2)     0.477
 3  CCTGTCAATATTGATGACTTG (targeted gene: BRAF)     0.319
 4  CACCAGCACTTTATACACTTC (targeted gene: RHOC)     0.652
 5  CCGTGCTAACTGTGTGTACAT (targeted gene: PEA15)     -1.15
 6  ACTGCTGTACTGGTTTGCAAA (targeted gene: BNIP2)     0.104
 7  GCGCCGAAATTGCAGGTTTAT (targeted gene: BIRC8)     -0.37
 8  CCGCAAAGAATCAAGTTGCAA (targeted gene: HSPA8)    -0.446
 9  GGCTTTACTCCGTAACAGATT (targeted gene: RHOA)     -2.14
10  CCAACACGTTTGAACTGAAAT (targeted gene: BIRC3)     0.578

----------
# shRNA barcode abundance ratio t end/t zero (log2) annotations
# Test system: MDA-MB-231
# Method Notes: shRNA barcode abundance ratio t_end/t_zero (depletion over 4 weeks of proliferation) (log2 ratio); higher = less depletion (weaker anti-proliferative effect of the shRNA)
# Applied Conditions: time after t zero 28 days
Parameter: shRNA barcode abundance ratio t end/t zero (log2)

                              entry_sequence  observed
 0  CCTCAGTGTCTGTTGAAGTAA (targeted gene: BIRC6)    -0.238
 1  GATGATAGTATTGAAGCAGAT (targeted gene: BNIP2)     0.366
 2  GGGCATTTGAGAAATGCATAT (targeted gene: IL7)      0.11
 3  GCCTGTCCATTGGTGATGTTG (targeted gene: HMGB1)     -0.18
 4  CCTTCCAGAGTTATGGAAATT (targeted gene: BCL2A1)     0.456
 5  ACAGTTTGAGTCAACTAGAAT (targeted gene: CD28)     0.508
 6  GCAGATGAAGATCATCGAAAT (targeted gene: BRAF)     0.116
 7  GGGAGGTAAATCAACATATAT (targeted gene: MSH2)     0.109
 8  GGATAGACTGGTCTAGAATAA (targeted gene: RALBP1)     0.174
 9  GCCGAAGATTTCACAGTCAAA (targeted gene: IGF1R)     0.225
10  CCTCACTTTCTCCAAGAAGTT (targeted gene: MAPK8IP2)    0.0658
11  CCTGCAAACCTTATCCTCTAT (targeted gene: MAPK8IP2)     0.442
12  GCCAATATTGTGTTTGGATAT (targeted gene: MALT1)     0.354
13  GGTGTCTTTACCAAACTTATT (targeted gene: HSPA9)    -0.751
14  GGAAATTCTTTCACTTCATTA (targeted gene: MCL1)     0.208
15  ACGCTCTGTGGCCAGTGTAAA (targeted gene: SULF2)     0.249
16  GCCTACAGCTGCCTCCTAGAA (targeted gene: ANXA4)     0.417
17  CGCAAGAATCTGTTCCTAGTG (targeted gene: FAIM3)    -0.255
18  CGCCAGCACCGGAGGAAGAAA (targeted gene: CDKN2A)   -0.0357
19  CCGAACATTAGGAATTGTTTA (targeted gene: ACVR1)     0.264
20  AGACATAAAGCCATCTCTTAT (targeted gene: NME5)      0.11
21  GGCCCAAGGTCCAAGTAGAAT (targeted gene: HSPA8)     0.332

All values here come from the supplement of paper PMC2824726.
